Test: in vitro
Details: blood
Reported values of fraction unbound for individual entries

compound | fraction unbound
CC(C)(C)NC[C@H](O)COc1nsnc1N1CCOCC1 [TIMOLOL] | 0.48
C=CCc1ccccc1OCC(O)CNC(C)C (stereo not given) [ALPRENOLOL] | 0.27
CC(C(=O)O)c1ccc(-c2ccccc2)c(F)c1 (stereo not given) [FLURBIPROFEN] | 0.005
CN(C)CCCN1c2ccccc2CCc2ccccc21 [IMIPRAMINE] | 0.13
CC(C(=O)O)c1cccc(Oc2ccccc2)c1 (stereo not given) [FENOPROFEN] | 0.018
OCCN1CCN(CCCN2c3ccccc3Sc3ccc(C(F)(F)F)cc32)CC1 [FLUPHENAZINE] | 0.012
CCCc1nn(C)c2c(=O)[nH]c(-c3cc(S(=O)(=O)N4CCN(C)CC4)ccc3OCC)nc12 | 0.094
CN(C)CCCN1c2ccccc2Sc2ccccc21 [PROMAZINE] | 0.029
COC(=O)C1=C(C)NC(C)=C(C(=O)OC)C1c1ccccc1[N+](=O)[O-] [NIFEDIPINE] | 0.068
CC(CN(C)C)CN1c2ccccc2CCc2ccccc21 (stereo not given) [TRIMIPRAMINE] | 0.051
C[C@]12C=CC(=O)C=C1CC[C@@H]1[C@@H]2[C@@H](O)C[C@@]2(C)[C@H]1CC[C@]2(O)C(=O)CO [PREDNISOLONE] | 0.1
CN1CCN2c3ccccc3Cc3ccccc3C2C1 (stereo not given) [MIANSERIN] | 0.14
CC(CCc1ccccc1)NCC(O)c1ccc(O)c(C(N)=O)c1 (stereo not given) [LABETALOL] | 0.32
CC(C)Cc1ccc(C(C)C(=O)O)cc1 (stereo not given) [IBUPROFEN] | 0.015
CCOc1ccc(NC(C)=O)cc1 [PHENACETIN] | 0.6
Cc1nc2n(c(=O)c1CCN1CCC(c3noc4cc(F)ccc34)CC1)CCCC2 [RISPERIDONE] | 0.17
O=c1n(CCCN2CCN(c3cccc(Cl)c3)CC2)nc2ccccn12 [TRAZODONE] | 0.061
O=C(O)Cc1ccccc1Nc1c(Cl)cccc1Cl [DICLOFENAC] | 0.014
CN1CCN(CCCN2c3ccccc3Sc3ccc(Cl)cc32)CC1 [PROCHLORPERAZINE] | 0.003
CCc1cccc2cc(C(O)CNC(C)(C)C)oc12 (stereo not given) [BUFURALOL] | 0.24
